# target: hERG (KCNH2) (Homo sapiens)
# Sequence (Q12809 whole entry): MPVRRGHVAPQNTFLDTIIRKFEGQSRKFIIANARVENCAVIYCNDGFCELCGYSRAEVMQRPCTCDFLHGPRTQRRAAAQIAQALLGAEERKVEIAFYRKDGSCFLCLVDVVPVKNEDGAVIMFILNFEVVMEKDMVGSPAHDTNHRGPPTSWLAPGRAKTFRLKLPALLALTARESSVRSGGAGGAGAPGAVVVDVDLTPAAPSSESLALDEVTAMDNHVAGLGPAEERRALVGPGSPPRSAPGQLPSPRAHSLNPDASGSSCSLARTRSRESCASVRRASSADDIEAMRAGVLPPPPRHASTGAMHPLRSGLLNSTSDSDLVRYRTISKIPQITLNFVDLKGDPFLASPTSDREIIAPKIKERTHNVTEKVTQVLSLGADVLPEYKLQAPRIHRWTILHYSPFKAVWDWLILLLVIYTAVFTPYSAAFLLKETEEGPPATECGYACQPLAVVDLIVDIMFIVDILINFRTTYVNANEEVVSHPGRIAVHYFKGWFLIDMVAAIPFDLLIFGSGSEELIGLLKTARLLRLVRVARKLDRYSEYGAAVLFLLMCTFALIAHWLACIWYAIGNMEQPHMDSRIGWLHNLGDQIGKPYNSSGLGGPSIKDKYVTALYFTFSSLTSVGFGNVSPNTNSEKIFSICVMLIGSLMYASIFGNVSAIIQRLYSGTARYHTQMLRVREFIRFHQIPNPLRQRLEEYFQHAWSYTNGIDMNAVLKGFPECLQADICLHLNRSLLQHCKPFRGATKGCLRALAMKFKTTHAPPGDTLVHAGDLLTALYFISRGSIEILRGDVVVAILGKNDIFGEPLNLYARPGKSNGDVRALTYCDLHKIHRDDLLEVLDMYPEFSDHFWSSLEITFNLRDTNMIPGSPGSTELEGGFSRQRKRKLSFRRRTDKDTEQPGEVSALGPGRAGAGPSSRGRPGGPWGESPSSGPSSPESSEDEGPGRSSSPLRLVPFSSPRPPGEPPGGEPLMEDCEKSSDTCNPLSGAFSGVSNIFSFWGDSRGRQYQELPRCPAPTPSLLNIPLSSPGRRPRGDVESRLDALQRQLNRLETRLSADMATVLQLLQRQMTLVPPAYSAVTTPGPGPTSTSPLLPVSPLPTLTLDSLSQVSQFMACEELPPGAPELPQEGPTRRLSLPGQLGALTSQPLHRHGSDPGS
# assay.method.text: Inhibition of human ERG expressed in HEK293 cells at 10 uM incubated for 2 to 5 mins by Manual patch clamp assay relative to control
# Type: toxicity, cell-based
# experimental.conditions: HEK293 cells expressing hERG, time 2-5 min
readout: inhibition at 10 µM

chemical.structure: Cc1cc(-n2ncc(CNC[C@H](O)c3ccc4c(c3C)COC4=O)n2)ncc1C#N
inhibition at 10 µM: 87%

For the molecule "Cc1cc(-c2ncc(CNC[C@H](O)c3ccc4c(c3C)COC4=O)s2)ncc1C#N" , what inhibition at 10 µM is on record?
72%

# query: inhibition at 10 µM of entry "Cc1cc(-n2cc(CN3CC(=O)N[C@H](c4ccc5c(c4C)COC5=O)C3)cn2)ncc1C#N"
42%

Could you tell me which inhibition at 10 µM is on file for "Cc1cc(-n2ccc(CNC[C@H](O)c3ccc4c(c3C)COC4=O)n2)ncc1C#N" ?
59%
